# System: CCRIS mutagenicity, Ames/micronucleus/aberration tests
# Protocol Details: CCRIS mutagenicity studies
# Protocol Conditions: Test System: Mouse lymphoma; Strain/Indicator: L5178Y (tk+/tk-); Metabolic Activation: Rat, Liver, S-9, Aroclor 1254; Method: Suspension/plate
# Text: The CCRIS database contains chemical records with carcinogenicity, mutagenicity, tumor promotion, and tumor inhibition test results. It was developed by the National Cancer Institute (NCI). Data are derived from studies cited in primary journals, current awareness tools, NCI reports, and other sources. Test results have been reviewed by experts in carcinogenesis and mutagenesis. CCRIS provides historical information from the years 1985 - 2011. It is no longer updated. […]
Active and inactive are the calls of the source. How the calls were made is not given here.
Pick from TRUE for active, FALSE for inactive when you respond.

Oc1ccccc1F
FALSE
ClCCl
FALSE
C[N+](C)(CF)CCO
FALSE
O=C(O)CN(CCN(CC(=O)O)CC(=O)O)CC(=O)O
FALSE
Cc1ccc(N=Nc2c(O)ccc3ccccc23)c(C)c1
FALSE

Problem: In this assay, the call recorded for O=Cc1ccc(Cl)cc1 was what?
Result: FALSE

Problem: In this assay, the call recorded for c1cc[c]([Sb]([c]2ccccc2)[c]2ccccc2)cc1 was what?
Result: TRUE

Problem: In this assay, the call recorded for CCCON=O was what?
Result: TRUE

Problem: In this assay, the call recorded for O=Cc1ccccc1[N+](=O)[O-] was what?
Result: FALSE

Problem: In this assay, the call recorded for NC(=O)c1ccc(N)cc1 was what?
Result: FALSE

Problem: In this assay, the call recorded for O=C(O)O was what?
Result: FALSE

Problem: In this assay, the call recorded for O=CC(O)C(O)C(O)C(O)COC1OC(COC2OC(CO)C(O)C(O)C2O)C(O)C(O)C1O (stereo unspecified) was what?
Result: FALSE

Problem: In this assay, the call recorded for O=C1/C(=N\Nc2ccc(/C=C/c3ccc(N/N=C4/C=C(S(=O)(=O)O)c5cccnc5C4=O)cc3S(=O)(=O)O)c(S(=O)(=O)O)c2)C=C(S(=O)(=O)O)c2cccnc21 was what?
Result: FALSE

----------
# Tested on: CCRIS mutagenicity, Ames/micronucleus/aberration tests
# Protocol Details: CCRIS mutagenicity studies
# Protocol Conditions: Test System: AMES SALMONELLA TYPHIMURIUM; Strain/Indicator: TA100; Metabolic Activation: NONE; Method: PREINCUBATION
Active and inactive are the calls of the source. No rule for the calls is given here.
Pick from true (1) = active, false (0) = inactive when you respond.

CC(C)=O
false (0)
Clc1ccccc1
false (0)
O=C1CSC(=S)N1
false (0)
O=C1OCCO1
false (0)
O=C(O)c1ccccc1Cl
false (0)
O=C(O)c1c(Cl)cccc1Cl
false (0)
O=c1c(=O)c2c([N+](=O)[O-])ccc3ccc4cccc1c4c32
true (1)
COc1ccc2c3c(cccc13)C(=O)N(C)C2=O
false (0)

Problem: In this assay, the call recorded for CC(C)(COCC1CO1)COCC1CO1 (stereo not drawn) was what?
Result: true (1)

Problem: In this assay, the call recorded for Cc1c[nH]c(=S)[nH]c1=O was what?
Result: false (0)

Problem: In this assay, the call recorded for CNC(=O)ON=CC(C)(C)SC was what?
Result: false (0)

Problem: In this assay, the call recorded for O=NO was what?
Result: true (1)
